// data source = the kinase profiling compilation of Christmann-Franck et al. (2016)

The reader will find reported residual activity values listed item by item below.
- tested.system: RPS6KA4 KD2 (human) (UniProt O75676)
- Sequence (O75676 whole entry, looked up): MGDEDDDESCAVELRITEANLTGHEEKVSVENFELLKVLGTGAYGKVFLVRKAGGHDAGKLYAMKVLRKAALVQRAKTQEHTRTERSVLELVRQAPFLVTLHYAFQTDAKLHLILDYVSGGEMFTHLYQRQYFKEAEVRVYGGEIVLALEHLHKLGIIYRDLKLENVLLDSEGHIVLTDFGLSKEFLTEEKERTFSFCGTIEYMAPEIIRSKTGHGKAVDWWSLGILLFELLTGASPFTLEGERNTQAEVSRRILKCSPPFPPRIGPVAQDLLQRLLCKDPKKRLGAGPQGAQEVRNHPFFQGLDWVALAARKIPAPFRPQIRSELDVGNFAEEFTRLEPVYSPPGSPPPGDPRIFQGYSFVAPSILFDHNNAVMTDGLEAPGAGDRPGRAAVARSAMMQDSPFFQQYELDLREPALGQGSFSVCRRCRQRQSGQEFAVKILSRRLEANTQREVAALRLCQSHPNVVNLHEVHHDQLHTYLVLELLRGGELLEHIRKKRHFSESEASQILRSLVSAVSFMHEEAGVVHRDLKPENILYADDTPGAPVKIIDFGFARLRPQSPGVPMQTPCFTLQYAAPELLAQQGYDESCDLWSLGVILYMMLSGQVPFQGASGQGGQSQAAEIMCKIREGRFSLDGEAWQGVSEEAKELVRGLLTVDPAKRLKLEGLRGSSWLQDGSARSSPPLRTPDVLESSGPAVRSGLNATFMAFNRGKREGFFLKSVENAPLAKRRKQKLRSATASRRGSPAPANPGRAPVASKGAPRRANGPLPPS
- run.description: radiometric filter-binding kinase assay, Kinase HotSpot
- condition.info: compound 0.5 µM; ATP 10 µM
// return numeric value only (unit: %, not printed)

# count of solved cases: 4
Q. Find the recorded residual activity belonging to CC(C)[C@H](CO)Nc1nc(Nc2cc(N)cc(Cl)c2)c2ncn(C(C)C)c2n1 and report it.
A. 89.3

Q. Please answer likewise for COc1cc2ncc(-c3ccccc3)nc2cc1OC
A. 85.4

Q. Try this compound too: Cn1nc2c3c(cccc31)C(=O)c1ccccc1-2
A. 105

Q. Thanks! And COc1ccc(OC)c2c(=S)c3ccccc3[nH]c12 ?
A. 93.5

Further cases:
Q. Suppose we examine the compound Nc1nnc2[nH]c3ccccc3nc1-2 ; what residual activity value has been reported?
A. 79

Q. What about CN([C@@H](Cc1ccc(OS(=O)(=O)c2cccc3cnccc23)cc1)C(=O)N1CCN(c2ccccc2)CC1)S(=O)(=O)c1cccc2cnccc12 ?
A. 98.7

Q. Subsequent entry: O=C(Nc1cccc(Nc2cc(Nc3cccc(C(F)(F)F)c3)ncn2)c1)C1CC1
A. 100

Q. Now the compound O=C1Nc2ccccc2/C1=C1\Nc2ccccc2\C1=N/O
A. 58.7

---

- tested.system: UniProt Q13554
- Sequence (Q13554 whole entry, looked up): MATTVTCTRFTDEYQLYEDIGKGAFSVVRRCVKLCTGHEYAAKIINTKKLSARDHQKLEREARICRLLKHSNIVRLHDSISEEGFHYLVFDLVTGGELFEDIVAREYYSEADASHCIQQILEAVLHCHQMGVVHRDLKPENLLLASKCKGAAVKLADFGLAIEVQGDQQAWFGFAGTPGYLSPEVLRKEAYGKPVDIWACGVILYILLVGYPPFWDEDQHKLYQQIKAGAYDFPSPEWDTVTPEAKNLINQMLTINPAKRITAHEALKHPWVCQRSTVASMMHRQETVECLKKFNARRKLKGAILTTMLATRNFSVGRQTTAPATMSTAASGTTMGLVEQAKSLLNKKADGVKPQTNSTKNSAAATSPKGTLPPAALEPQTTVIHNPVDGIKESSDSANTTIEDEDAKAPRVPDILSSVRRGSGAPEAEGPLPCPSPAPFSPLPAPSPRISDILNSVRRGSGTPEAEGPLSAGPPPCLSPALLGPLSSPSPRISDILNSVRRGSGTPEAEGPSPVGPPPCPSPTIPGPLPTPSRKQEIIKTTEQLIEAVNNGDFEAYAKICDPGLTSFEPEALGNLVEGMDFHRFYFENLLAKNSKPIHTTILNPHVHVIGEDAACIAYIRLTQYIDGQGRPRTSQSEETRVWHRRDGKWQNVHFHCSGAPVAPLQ
- run.description: radiometric filter-binding kinase assay, Kinase HotSpot
- condition.info: compound 0.5 µM; ATP 10 µM
observed.property: residual activity (%)
Quick reminder: number only, in %, skip the unit.

Q. If you can, please state the reported residual activity value of Cn1sc(=O)n(Cc2ccccc2)c1=O .
A. 102

Q. And the next one, CN([C@@H](Cc1ccc(OS(=O)(=O)c2cccc3cnccc23)cc1)C(=O)N1CCN(c2ccccc2)CC1)S(=O)(=O)c1cccc2cnccc12 ?
A. 97.8

Q. Would you kindly repeat that for CC(C)c1nn(-c2c(Cl)cccc2Cl)c2nc(Cc3ccc(OCCO)cc3)nc(O)c12 ?
A. 104

***
Q. If you can, please state the reported residual activity value of CCn1cnc2c(Nc3cccc(Cl)c3)nc(N[C@@H]3CCCC[C@@H]3N)nc21 .
A. 110

Q. Thanks! And COc1ccc(CNC(=O)Nc2ncc([N+](=O)[O-])s2)cc1 ?
A. 103

Q. How about this molecule: O=C1NC(=O)C(c2c[nH]c3ccccc23)=C1c1c[nH]c2ccccc12
A. 96.9

Q. Next molecule: O=C1Nc2ccccc2/C1=C1\Nc2ccccc2\C1=N/O
A. 87.5

Q. Then what about the molecule Oc1ccc(Nc2nc(-c3ccc(Cl)cc3)cs2)cc1 ?
A. 85.8

Q. Continue with O=C1Cc2c([nH]c3ccc(Br)cc23)-c2ccccc2N1
A. 97.8

Q. One more molecule: Cc1nc2cc3nc(-c4cccs4)cnc3cc2n1C
A. 101

Q. Same question, Cn1nc2c3c(cccc31)C(=O)c1ccccc1-2 this time
A. 95.3

---

Measured residual activity, listed per entry for reference.
- tested.system: FGFR2 (human)
- run.description: radiometric filter-binding kinase assay, Kinase HotSpot
- condition.info: compound 0.5 µM; ATP 10 µM
Answer in %, number only, no unit symbol.

Q. // returns reported residual activity for input O=C1NC(=O)/C(=C\c2ccc3nccnc3c2)S1
A. 95

Q. How about this compound: Cn1nc2c3c(cccc31)C(=O)c1ccccc1-2
A. 105

Proceeding to the next compound to report its residual activity.
Q. # input compound: CCN(CC)CCCCN1c2ccccc2Oc2ccc(Cl)cc21 ; wanted: its residual activity
A. 95.7

---

- tested.system: PHKG2 (human) (UniProt P15735)
- Sequence (P15735 whole entry, looked up): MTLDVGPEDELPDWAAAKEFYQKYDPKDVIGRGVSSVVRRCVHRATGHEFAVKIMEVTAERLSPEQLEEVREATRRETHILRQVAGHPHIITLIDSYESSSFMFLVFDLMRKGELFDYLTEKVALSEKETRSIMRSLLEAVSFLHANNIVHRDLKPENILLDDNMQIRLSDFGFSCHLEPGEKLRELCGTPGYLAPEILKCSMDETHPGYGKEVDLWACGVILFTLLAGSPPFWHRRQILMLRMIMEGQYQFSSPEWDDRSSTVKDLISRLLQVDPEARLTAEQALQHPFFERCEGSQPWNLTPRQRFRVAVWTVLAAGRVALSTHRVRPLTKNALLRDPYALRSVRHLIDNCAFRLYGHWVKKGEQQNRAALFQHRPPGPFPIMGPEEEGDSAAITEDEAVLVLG
- run.description: radiometric filter-binding kinase assay, Kinase HotSpot
- condition.info: compound 0.5 µM; ATP 10 µM
observed.property: residual activity (%)
Give just the number in %; leave the unit off.

Below: 3 compounds and their reported residual activity.
Q. # input compound: Cn1cnc2cc3c(Nc4cccc(Br)c4)ncnc3cc21 ; wanted: its residual activity
A. 103

Q. Follow-up entry: O=C1Cc2c([nH]c3ccc(Br)cc23)-c2ccccc2N1
A. 98.9

Q. Another compound to check: O=C1Nc2ccccc2/C1=C1/Nc2ccccc2/C1=N\OCCC(O)CO (stereo not given)
A. 34.9

Others:
Q. // residual activity lookup, key: Cn1sc(=O)n(Cc2ccccc2)c1=O
A. 90.6

Q. Do the same for O=C1NC(=O)/C(=C\c2ccc3nccnc3c2)S1 please
A. 97.4

---

- tested.system: MAP4K5 (human) (UniProt Q9Y4K4)
- Sequence (Q9Y4K4 whole entry, looked up): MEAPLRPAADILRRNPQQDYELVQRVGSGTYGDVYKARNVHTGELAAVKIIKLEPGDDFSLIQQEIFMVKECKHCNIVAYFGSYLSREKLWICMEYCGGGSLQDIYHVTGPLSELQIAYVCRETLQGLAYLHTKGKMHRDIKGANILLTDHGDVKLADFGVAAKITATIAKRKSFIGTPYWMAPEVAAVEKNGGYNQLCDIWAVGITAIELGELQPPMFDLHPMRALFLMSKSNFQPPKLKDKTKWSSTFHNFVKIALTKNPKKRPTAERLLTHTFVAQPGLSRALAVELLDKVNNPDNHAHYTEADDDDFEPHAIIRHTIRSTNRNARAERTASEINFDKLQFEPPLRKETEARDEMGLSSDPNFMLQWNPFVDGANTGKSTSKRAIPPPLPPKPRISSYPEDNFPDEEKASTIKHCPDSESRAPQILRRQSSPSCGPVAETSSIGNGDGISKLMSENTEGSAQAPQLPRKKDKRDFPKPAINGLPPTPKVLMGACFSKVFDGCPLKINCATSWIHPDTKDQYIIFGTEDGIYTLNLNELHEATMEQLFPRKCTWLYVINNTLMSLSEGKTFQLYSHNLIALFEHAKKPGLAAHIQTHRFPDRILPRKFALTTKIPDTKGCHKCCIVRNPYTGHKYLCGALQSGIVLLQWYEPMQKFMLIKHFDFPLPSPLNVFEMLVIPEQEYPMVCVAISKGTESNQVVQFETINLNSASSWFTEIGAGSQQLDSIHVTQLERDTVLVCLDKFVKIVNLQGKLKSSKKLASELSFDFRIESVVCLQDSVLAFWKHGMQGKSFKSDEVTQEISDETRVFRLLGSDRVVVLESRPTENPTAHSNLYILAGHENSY
- run.description: radiometric filter-binding kinase assay, Kinase HotSpot
- condition.info: compound 0.5 µM; ATP 10 µM
A collection of compounds and their measured residual activity
Quick note: unit goes after the number.

As a guide, the following entries are already answered.
Q. For the record CN([C@@H](Cc1ccc(OS(=O)(=O)c2cccc3cnccc23)cc1)C(=O)N1CCN(c2ccccc2)CC1)S(=O)(=O)c1cccc2cnccc12 , what value of residual activity is listed for MAP4K5 (human) (UniProt Q9Y4K4)?
A. 96.3%

Q. Next record, please: Nc1nccc(-c2c(-c3ccc(F)cc3)ncn2C2CCNCC2)n1
A. 68.1%

Q. Thanks! And O=C(Nc1cccc(Nc2cc(Nc3cccc(C(F)(F)F)c3)ncn2)c1)C1CC1 ?
A. 96.1%

Q. Check Oc1ccc(Nc2nc(-c3ccc(Cl)cc3)cs2)cc1 too.
A. 110%

# next compound below
Q. // fetch MAP4K5 (human) (UniProt Q9Y4K4) residual activity for O=C1Nc2ccccc2/C1=C1/Nc2ccccc2/C1=N\OCCC(O)CO (stereo not given)
A. 15.5%

---

- tested.system: PAK3 (human) (UniProt O75914)
- Sequence (O75914 whole entry, looked up): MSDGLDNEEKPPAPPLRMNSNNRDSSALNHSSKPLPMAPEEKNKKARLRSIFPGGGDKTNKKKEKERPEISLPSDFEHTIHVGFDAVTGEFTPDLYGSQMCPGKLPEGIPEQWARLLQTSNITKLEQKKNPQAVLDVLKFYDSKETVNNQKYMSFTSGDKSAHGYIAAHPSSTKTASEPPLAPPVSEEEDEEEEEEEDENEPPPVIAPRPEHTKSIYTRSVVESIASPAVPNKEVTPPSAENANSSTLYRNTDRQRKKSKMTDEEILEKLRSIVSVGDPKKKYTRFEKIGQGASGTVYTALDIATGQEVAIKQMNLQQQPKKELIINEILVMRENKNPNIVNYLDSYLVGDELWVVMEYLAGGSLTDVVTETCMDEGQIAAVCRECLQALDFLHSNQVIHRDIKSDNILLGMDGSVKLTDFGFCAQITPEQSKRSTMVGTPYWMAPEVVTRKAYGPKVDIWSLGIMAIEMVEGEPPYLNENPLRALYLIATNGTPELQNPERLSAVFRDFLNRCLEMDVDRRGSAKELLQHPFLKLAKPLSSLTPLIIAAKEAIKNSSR
- run.description: radiometric filter-binding kinase assay, Kinase HotSpot
- condition.info: compound 0.5 µM; ATP 10 µM
observed.property: residual activity

Answered examples (2):
Q. What is its residual activity for PAK3 (human) (UniProt O75914)? Entry: O=C1NC(=O)C(c2c[nH]c3ccccc23)=C1c1c[nH]c2ccccc12
A. 97.4%

Q. Now consider COc1cc2ncc(-c3ccccc3)nc2cc1OC .
A. 94.7%

New cases:
Q. Query for PAK3 (human) (UniProt O75914): what residual activity does the record show for COc1cc2ncnc(N3CCN(C(=O)Nc4ccc(Oc5ccccc5)cc4)CC3)c2cc1OC ?
A. 98.1%

Q. Please give the result for O=C(Nc1cccc(Nc2cc(Nc3cccc(C(F)(F)F)c3)ncn2)c1)C1CC1 too.
A. 101%

Q. Please do the same for CC(C)[C@H](CO)Nc1nc(Nc2cc(N)cc(Cl)c2)c2ncn(C(C)C)c2n1 as well.
A. 101%

Q. // query: CCn1cnc2c(Nc3cccc(Cl)c3)nc(N[C@@H]3CCCC[C@@H]3N)nc21
A. 91.9%

---

- tested.system: TAOK1 (human) (UniProt Q7L7X3)
- Sequence (Q7L7X3 whole entry, looked up): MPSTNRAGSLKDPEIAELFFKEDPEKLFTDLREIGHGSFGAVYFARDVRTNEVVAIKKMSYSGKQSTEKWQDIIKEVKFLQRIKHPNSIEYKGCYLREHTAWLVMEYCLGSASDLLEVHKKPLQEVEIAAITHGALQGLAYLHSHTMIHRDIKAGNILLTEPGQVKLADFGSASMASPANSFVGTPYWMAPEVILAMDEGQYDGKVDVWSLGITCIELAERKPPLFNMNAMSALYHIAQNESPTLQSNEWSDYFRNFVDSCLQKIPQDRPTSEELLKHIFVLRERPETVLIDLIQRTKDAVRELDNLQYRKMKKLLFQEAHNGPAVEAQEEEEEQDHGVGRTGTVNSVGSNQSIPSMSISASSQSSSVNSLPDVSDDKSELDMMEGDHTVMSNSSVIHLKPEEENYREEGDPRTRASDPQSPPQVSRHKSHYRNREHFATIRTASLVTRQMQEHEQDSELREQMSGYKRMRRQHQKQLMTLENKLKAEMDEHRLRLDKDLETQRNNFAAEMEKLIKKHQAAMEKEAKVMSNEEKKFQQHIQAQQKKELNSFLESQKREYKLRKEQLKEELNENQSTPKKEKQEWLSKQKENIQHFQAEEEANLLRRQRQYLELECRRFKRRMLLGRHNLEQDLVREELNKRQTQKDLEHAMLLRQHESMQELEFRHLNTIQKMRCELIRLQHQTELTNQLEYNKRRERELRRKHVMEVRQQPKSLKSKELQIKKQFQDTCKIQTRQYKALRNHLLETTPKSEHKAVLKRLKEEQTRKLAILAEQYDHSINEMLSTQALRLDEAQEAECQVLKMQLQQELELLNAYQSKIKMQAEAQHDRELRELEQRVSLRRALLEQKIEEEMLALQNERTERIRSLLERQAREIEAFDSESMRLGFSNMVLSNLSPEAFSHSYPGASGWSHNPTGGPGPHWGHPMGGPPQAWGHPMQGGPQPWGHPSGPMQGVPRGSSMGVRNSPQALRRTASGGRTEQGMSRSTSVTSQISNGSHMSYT
- run.description: radiometric filter-binding kinase assay, Kinase HotSpot
- condition.info: compound 0.5 µM; ATP 10 µM
observed.property: residual activity

Take a look at these entries with their results.
Q. Can you look up the measured residual activity of O=C(O)/C=C/c1cc(Br)c(Br)c(Br)c1Br for me?
A. 56.3%

Q. // next record O=C1NC(=O)/C(=C\c2ccc3nccnc3c2)S1
A. 82.8%

More entries:
Q. What value of residual activity has been recorded for this entry: O=C(CCCc1ccc(-c2ccccc2F)cc1)Nc1ccc(O)cc1
A. 91.4%

Q. And for Oc1ccc(Nc2nc(-c3ccc(Cl)cc3)cs2)cc1 ?
A. 97.1%

---

# reported residual activity; entries follow
- tested.system: DAPK3 (human)
- run.description: radiometric filter-binding kinase assay, Kinase HotSpot
- condition.info: compound 0.5 µM; ATP 10 µM
Express the result in % but write the number alone.

Q. Look up residual activity for this compound: CC(=O)O/N=C1\C(=C2\C(=O)Nc3cc(Br)ccc32)Nc2ccccc21
A. 82.2

Q. For O=C1NC(=O)C(c2cn(CCCO)c3ncccc23)=C1c1cnccn1 then?
A. 80.2

Q. # repeat for O=C(Nc1cccc(Nc2cc(Nc3cccc(C(F)(F)F)c3)ncn2)c1)C1CC1
A. 99.8

Q. Item: Oc1ccc(Nc2nc(-c3ccc(Cl)cc3)cs2)cc1
A. 103

Q. For Nc1nnc2[nH]c3ccccc3nc1-2 then?
A. 98.2

Q. Moving on to the next compound: Nc1nccc(-c2c(-c3ccc(F)cc3)ncn2C2CCNCC2)n1
A. 96.5

---

- tested.system: RAF1 (human) (UniProt P04049)
- Sequence (P04049 whole entry, looked up): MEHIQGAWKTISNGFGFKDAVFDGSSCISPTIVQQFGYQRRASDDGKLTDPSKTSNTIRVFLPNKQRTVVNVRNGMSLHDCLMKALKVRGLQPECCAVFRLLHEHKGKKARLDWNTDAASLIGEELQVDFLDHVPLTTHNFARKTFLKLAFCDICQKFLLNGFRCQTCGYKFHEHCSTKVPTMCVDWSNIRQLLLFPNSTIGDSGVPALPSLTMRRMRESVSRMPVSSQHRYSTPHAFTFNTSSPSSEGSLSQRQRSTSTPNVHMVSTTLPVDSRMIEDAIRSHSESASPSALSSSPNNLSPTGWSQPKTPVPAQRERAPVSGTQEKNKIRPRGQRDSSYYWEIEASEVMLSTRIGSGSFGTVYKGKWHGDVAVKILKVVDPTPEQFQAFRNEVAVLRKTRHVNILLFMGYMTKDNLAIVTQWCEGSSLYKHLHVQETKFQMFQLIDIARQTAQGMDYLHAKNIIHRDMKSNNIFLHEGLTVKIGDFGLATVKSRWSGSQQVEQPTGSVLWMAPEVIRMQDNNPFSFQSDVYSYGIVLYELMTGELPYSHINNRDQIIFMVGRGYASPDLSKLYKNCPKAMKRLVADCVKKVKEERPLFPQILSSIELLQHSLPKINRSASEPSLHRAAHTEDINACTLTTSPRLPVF
- run.description: radiometric filter-binding kinase assay, Kinase HotSpot
- condition.info: compound 0.5 µM; ATP 10 µM
List of residual activity values.
Report only the number, with the unit % understood.

Example cases with answers are listed next.
Q. Sample CC(C)[C@H](CO)Nc1nc(Nc2cc(N)cc(Cl)c2)c2ncn(C(C)C)c2n1 — what was its residual activity?
A. 113

Q. Consider next the compound Cn1sc(=O)n(Cc2ccccc2)c1=O in the same way.
A. 97.2

Q. One more compound: Cc1nc2cc3nc(-c4cccs4)cnc3cc2n1C
A. 104

Q. Item: COc1ccc(OC)c2c(=S)c3ccccc3[nH]c12
A. 88.2

Q. Try the compound CCn1cnc2c(Nc3cccc(Cl)c3)nc(N[C@@H]3CCCC[C@@H]3N)nc21
A. 92.8

Q. Input COc1cc2ncnc(N3CCN(C(=O)Nc4ccc(Oc5ccccc5)cc4)CC3)c2cc1OC
A. 88

---
Q. Entry under review: Oc1ccc(Nc2nc(-c3ccc(Cl)cc3)cs2)cc1 . Reported residual activity?
A. 95.7

Q. Param item: O=C(O)/C=C/c1cc(Br)c(Br)c(Br)c1Br
A. 91.3

Q. Lookup O=C1NC(=O)C(c2c[nH]c3ccccc23)=C1c1c[nH]c2ccccc12
A. 122

Q. Please answer likewise for CCN(CC)CCCCN1c2ccccc2Oc2ccc(Cl)cc21
A. 105

Q. Further, for O=C1Cc2c([nH]c3ccc(Br)cc23)-c2ccccc2N1 ?
A. 91.5
